The origin of these recorded values is paper PMC5598371.

- testDescription: Cytotoxic activity, MTT method
- Type: cell-based
- conditionSummary: human
Here the recorded CC50 is given for each entry.
I only need the number, in µM, no unit after it.

Sample records with CC50:
COc1ccc(/C=C/c2coc3ccc(OC)cc3c2=O)cc1; 178
COc1ccc2occ(/C=C/c3cc(OC)c(OC)c(OC)c3)c(=O)c2c1; 610
COc1cccc2c1C(=O)c1c(O)c3c(c(O)c1C2=O)C[C@@](O)(C(=O)CO)C[C@@H]3O[C@H]1C[C@H](N)[C@H](O)[C@H](C)O1 [Doxorubicin, doxorubicin, reference compound]; 0.027

Data request: Would you mind telling me what CC50 value was observed for O=c1[nH]cc(F)c(=O)[nH]1 [5-FU, 5-fluorouracil, reference compound] ?
Data returned: 18.8

---

- testDescription: Cytotoxic activity, MTT method
- Format: cell-based
- conditionSummary: human, oral keratinocytes (HOK), normal epithelial cells
Here the recorded CC50 is given for each entry.
I only need the number, in µM, no unit after it.

Data request: Would you mind telling me what CC50 value was observed for "COc1ccc(/C=C/c2coc3ccc(OC)cc3c2=O)cc1" ?
Data returned: 70

Data request: Would you mind telling me what CC50 value was observed for "COc1ccc2occ(/C=C/c3cc(OC)c(OC)c(OC)c3)c(=O)c2c1" ?
Data returned: 77

Data request: Would you mind telling me what CC50 value was observed for COc1cccc2c1C(=O)c1c(O)c3c(c(O)c1C2=O)C[C@@](O)(C(=O)CO)C[C@@H]3O[C@H]1C[C@H](N)[C@H](O)[C@H](C)O1 [Doxorubicin, doxorubicin, reference compound] ?
Data returned: 1.31

Data request: Would you mind telling me what CC50 value was observed for O=c1[nH]cc(F)c(=O)[nH]1 [5-FU, 5-fluorouracil, reference compound] ?
Data returned: 24.7

Data request: Would you mind telling me what CC50 value was observed for "COc1ccc2occ(/C=C/c3ccc(O)cc3)c(=O)c2c1" ?
Data returned: 19

---

- Tested on: HOK vs human OSCC cell lines
- testDescription: Tumor-specificity
- Type: cell-based
- conditionSummary: CC50 HOK / mean CC50 OSCC lines
quantity: Tumor-specificity index (TS) E/B
Enter a number only.

Sample records with Tumor-specificity index (TS) E/B:
O=c1[nH]cc(F)c(=O)[nH]1 [5-FU, 5-fluorouracil, reference compound]; 1.4
COc1ccc(/C=C/c2coc3ccc(OC)cc3c2=O)cc1; 10.9
COc1ccc2occ(/C=C/c3cc(OC)c(OC)c(OC)c3)c(=O)c2c1; 5.9
COc1cccc2c1C(=O)c1c(O)c3c(c(O)c1C2=O)C[C@@](O)(C(=O)CO)C[C@@H]3O[C@H]1C[C@H](N)[C@H](O)[C@H](C)O1 [Doxorubicin, doxorubicin, reference compound]; 8.7

Okay, now this molecule:
Data request: Short answer please: Tumor-specificity index (TS) E/B, HOK vs human OSCC cell lines, entry "COc1ccc2occ(/C=C/c3ccc(O)cc3)c(=O)c2c1"
Data returned: 9.5
